Ref: the NIST ThermoML archive (doi:10.1016/j.jct.2018.01.003)

Assay: activity coefficient (dimensionless); of the first substance listed, at infinite dilution; xn = mol fraction of the nth substance listed
Conditions: 368.15 K; 101.33 kPa; Liquid; Chromatography; x1 = 0
Measured attribute: activity coefficient

- Molecule: "C1COCCO1 [1,4-dioxane] + CCCCCCCCCCCCCC[P+](CCCCCC)(CCCCCC)CCCCCC.N#CC(=C=[N-])C#N"
  activity coefficient: 0.642

I: COC(C)=O [methyl ethanoate] + CCCCCCCCCCCCCC[P+](CCCCCC)(CCCCCC)CCCCCC.N#CC(=C=[N-])C#N
II: C#CCCCCCC [1-octyne] + CCCCCCCCCCCCCC[P+](CCCCCC)(CCCCCC)CCCCCC.N#CC(=C=[N-])C#N
Exercise: Could you tell me which of I and II has the lower activity coefficient reading? Respond using the label that marks the chosen record.
Key: I
(I: 0.721, II: 1.25)

* * *

Experiment: activity coefficient (dimensionless); of the first substance listed, at infinite dilution; xn = mol fraction of the nth substance listed
Details: 348.15 K; 101.33 kPa; Liquid; Chromatography; x1 = 0
Measured attribute: activity coefficient

Some compounds with known activity coefficient results, for comparison:
- Compound: "CC(C)OC(C)C [diisopropyl ether] + CCCCCCCCCCCCCC[P+](CCCCCC)(CCCCCC)CCCCCC.N#CC(=C=[N-])C#N"
  Number: 1.58
- Compound: "CCC[N+](=O)[O-] [1-nitropropane] + CCCCCCCCCCCCCC[P+](CCCCCC)(CCCCCC)CCCCCC.N#CC(=C=[N-])C#N"
  Number: 0.566

1: O [water] + CCCCCCCCCCCCCC[P+](CCCCCC)(CCCCCC)CCCCCC.N#CC(=C=[N-])C#N
2: CCC(=O)CC [pentan-3-one] + CCCCCCCCCCCCCC[P+](CCCCCC)(CCCCCC)CCCCCC.N#CC(=C=[N-])C#N
Exercise: Could you tell me which of 1 and 2 has the lower activity coefficient reading? Respond using the label that marks the chosen record.
Key: 2
(2: 0.47, 1: 1.65)

* * *

Assay: activity coefficient (dimensionless); of the first substance listed, at infinite dilution; xn = mol fraction of the nth substance listed
Conditions: 328.15 K; 101.33 kPa; Liquid; Chromatography; x1 = 0
Measured attribute: activity coefficient

- Compound: "CCCCCCCC [octane] + CCCCCCCCCCCCCC[P+](CCCCCC)(CCCCCC)CCCCCC.N#CC(=C=[N-])C#N"
  Number: 2.35
- Compound: "CCC(=O)OC [methyl propanoate] + CCCCCCCCCCCCCC[P+](CCCCCC)(CCCCCC)CCCCCC.N#CC(=C=[N-])C#N"
  Number: 0.616

I: CCCC=O [butanal] + CCCCCCCCCCCCCC[P+](CCCCCC)(CCCCCC)CCCCCC.N#CC(=C=[N-])C#N
II: C1CCCC1 [cyclopentane] + CCCCCCCCCCCCCC[P+](CCCCCC)(CCCCCC)CCCCCC.N#CC(=C=[N-])C#N
Exercise: Between I and II , whose measured activity coefficient reads higher? Respond using the label that marks the chosen record.
Key: II
(II: 0.99, I: 0.46)

* * *

Assay: activity coefficient (dimensionless); of the first substance listed, at infinite dilution; xn = mol fraction of the nth substance listed
Settings: 348.15 K; 101.33 kPa; Liquid; Chromatography; x1 = 0
Measured attribute: activity coefficient

- Compound: "CCC(C)(C)OC [2-methoxy-2-methylbutane] + CCCCCCCCCCCCCC[P+](CCCCCC)(CCCCCC)CCCCCC.N#CC(=C=[N-])C#N"
  activity coefficient: 1.1
- Compound: "CC1CCCCC1 [methylcyclohexane] + CCCCCCCCCCCCCC[P+](CCCCCC)(CCCCCC)CCCCCC.N#CC(=C=[N-])C#N"
  activity coefficient: 1.35
- Compound: "Cc1cccc(C)c1 [1,3-dimethylbenzene] + CCCCCCCCCCCCCC[P+](CCCCCC)(CCCCCC)CCCCCC.N#CC(=C=[N-])C#N"
  activity coefficient: 0.77
- Compound: "CCC(=O)OC [methyl propanoate] + CCCCCCCCCCCCCC[P+](CCCCCC)(CCCCCC)CCCCCC.N#CC(=C=[N-])C#N"
  activity coefficient: 0.663
- Compound: "Cc1ccccc1 [toluene] + CCCCCCCCCCCCCC[P+](CCCCCC)(CCCCCC)CCCCCC.N#CC(=C=[N-])C#N"
  activity coefficient: 0.611
- Compound: "CCC(C)O (centres undefined) [butan-2-ol] + CCCCCCCCCCCCCC[P+](CCCCCC)(CCCCCC)CCCCCC.N#CC(=C=[N-])C#N"
  activity coefficient: 0.476
- Compound: "COC(C)=O [methyl ethanoate] + CCCCCCCCCCCCCC[P+](CCCCCC)(CCCCCC)CCCCCC.N#CC(=C=[N-])C#N"
  activity coefficient: 0.685
- Compound: "CC(C)CO [2-methyl-1-propanol] + CCCCCCCCCCCCCC[P+](CCCCCC)(CCCCCC)CCCCCC.N#CC(=C=[N-])C#N"
  activity coefficient: 0.423
- Compound: "C1CCCCCC1 [cycloheptane] + CCCCCCCCCCCCCC[P+](CCCCCC)(CCCCCC)CCCCCC.N#CC(=C=[N-])C#N"
  activity coefficient: 1.23
- Compound: "C1CCCCCCC1 [cyclooctane] + CCCCCCCCCCCCCC[P+](CCCCCC)(CCCCCC)CCCCCC.N#CC(=C=[N-])C#N"
  activity coefficient: 1.35

1: CCOC(C)(C)C [2-ethoxy-2-methylpropane] + CCCCCCCCCCCCCC[P+](CCCCCC)(CCCCCC)CCCCCC.N#CC(=C=[N-])C#N
2: CC(C)O [propan-2-ol] + CCCCCCCCCCCCCC[P+](CCCCCC)(CCCCCC)CCCCCC.N#CC(=C=[N-])C#N
3: C#CCCCCC [1-heptyne] + CCCCCCCCCCCCCC[P+](CCCCCC)(CCCCCC)CCCCCC.N#CC(=C=[N-])C#N
Exercise: # rank_down: sort by activity coefficient, max first // list labels; follow requested order
Key: 1, 3, 2

* * *

Assay: activity coefficient (dimensionless); of the first substance listed, at infinite dilution; xn = mol fraction of the nth substance listed
Settings: 368.15 K; 101.33 kPa; Liquid; Chromatography; x1 = 0
Measured attribute: activity coefficient

- Compound: "Cc1cccc(C)c1 [1,3-dimethylbenzene] + CCCCCCCCCCCCCC[P+](CCCCCC)(CCCCCC)CCCCCC.N#CC(=C=[N-])C#N"
  activity coefficient: 0.826
- Compound: "C#CCCC [1-pentyne] + CCCCCCCCCCCCCC[P+](CCCCCC)(CCCCCC)CCCCCC.N#CC(=C=[N-])C#N"
  activity coefficient: 0.893
- Compound: "CCC(=O)OC [methyl propanoate] + CCCCCCCCCCCCCC[P+](CCCCCC)(CCCCCC)CCCCCC.N#CC(=C=[N-])C#N"
  activity coefficient: 0.711

A: CC1CCCCC1 [methylcyclohexane] + CCCCCCCCCCCCCC[P+](CCCCCC)(CCCCCC)CCCCCC.N#CC(=C=[N-])C#N
B: CCCCCCC [heptane] + CCCCCCCCCCCCCC[P+](CCCCCC)(CCCCCC)CCCCCC.N#CC(=C=[N-])C#N
C: CCc1ccccc1 [ethylbenzene] + CCCCCCCCCCCCCC[P+](CCCCCC)(CCCCCC)CCCCCC.N#CC(=C=[N-])C#N
D: CCCCCCCCCC [decane] + CCCCCCCCCCCCCC[P+](CCCCCC)(CCCCCC)CCCCCC.N#CC(=C=[N-])C#N
Exercise: # rank_down: sort by activity coefficient, max first // list labels; follow requested order
Key: D, B, A, C

1: C=CCCCCC [1-heptene] + CCCCCCCCCCCCCC[P+](CCCCCC)(CCCCCC)CCCCCC.N#CC(=C=[N-])C#N
2: c1ccccc1 [benzene] + CCCCCCCCCCCCCC[P+](CCCCCC)(CCCCCC)CCCCCC.N#CC(=C=[N-])C#N
3: CCCCCCCCC [nonane] + CCCCCCCCCCCCCC[P+](CCCCCC)(CCCCCC)CCCCCC.N#CC(=C=[N-])C#N
Exercise: # rank_down: sort by activity coefficient, max first // list labels; follow requested order
Key: 3, 1, 2

A: C=CCCCCCC [oct-1-ene] + CCCCCCCCCCCCCC[P+](CCCCCC)(CCCCCC)CCCCCC.N#CC(=C=[N-])C#N
B: CCCC(C)=O [pentan-2-one] + CCCCCCCCCCCCCC[P+](CCCCCC)(CCCCCC)CCCCCC.N#CC(=C=[N-])C#N
Exercise: Could you tell me which of A and B has the lower activity coefficient reading? Respond using the label that marks the chosen record.
Key: B

a: CC(C)CO [2-methyl-1-propanol] + CCCCCCCCCCCCCC[P+](CCCCCC)(CCCCCC)CCCCCC.N#CC(=C=[N-])C#N
b: C=CCCCC [hex-1-ene] + CCCCCCCCCCCCCC[P+](CCCCCC)(CCCCCC)CCCCCC.N#CC(=C=[N-])C#N
Exercise: Between a and b , whose measured activity coefficient reads higher? Respond using the label that marks the chosen record.
Key: b

I: C1CCOC1 [tetrahydrofuran] + CCCCCCCCCCCCCC[P+](CCCCCC)(CCCCCC)CCCCCC.N#CC(=C=[N-])C#N
II: CCCOCCC [dipropyl ether] + CCCCCCCCCCCCCC[P+](CCCCCC)(CCCCCC)CCCCCC.N#CC(=C=[N-])C#N
Exercise: Could you tell me which of I and II has the lower activity coefficient reading? Respond using the label that marks the chosen record.
Key: I
(I: 0.453, II: 1.47)

I: CCCC=O [butanal] + CCCCCCCCCCCCCC[P+](CCCCCC)(CCCCCC)CCCCCC.N#CC(=C=[N-])C#N
II: CCCCC [pentane] + CCCCCCCCCCCCCC[P+](CCCCCC)(CCCCCC)CCCCCC.N#CC(=C=[N-])C#N
Exercise: Could you tell me which of I and II has the lower activity coefficient reading? Respond using the label that marks the chosen record.
Key: I
(I: 0.533, II: 1.69)

P: CCC(C)O (stereo not drawn) [butan-2-ol] + CCCCCCCCCCCCCC[P+](CCCCCC)(CCCCCC)CCCCCC.N#CC(=C=[N-])C#N
Q: CCOC(C)=O [ethyl acetate] + CCCCCCCCCCCCCC[P+](CCCCCC)(CCCCCC)CCCCCC.N#CC(=C=[N-])C#N
Exercise: Could you tell me which of P and Q has the lower activity coefficient reading? Respond using the label that marks the chosen record.
Key: P
(P: 0.495, Q: 0.746)

1: CCCO [propan-1-ol] + CCCCCCCCCCCCCC[P+](CCCCCC)(CCCCCC)CCCCCC.N#CC(=C=[N-])C#N
2: C=CCCCCCCCC [1-decene] + CCCCCCCCCCCCCC[P+](CCCCCC)(CCCCCC)CCCCCC.N#CC(=C=[N-])C#N
Exercise: Could you tell me which of 1 and 2 has the lower activity coefficient reading? Respond using the label that marks the chosen record.
Key: 1
